The reported measurements were obtained from patent EP0411503B1.

Target: peptide HIV-1 gp120
Assay: Affinity HPLC of CD4 peptide on immobilized HIV-1 gp120 peptide
Assay type: binding
Conditions: immobilized HIV-1 gp120 peptide; 0.1 M NH4Ac, pH 5.7; extrapolation at concentration zero of peptide; read-out: dissociation constant
Where no end group is shown, it is not given here.
Readout Type: Kd (µM)
Field: numeric (µM). Do not append units.

Ask: Given the sequence GPSKLNDRADS [peptide CD4, NH2-GPSKLNDRADSCOOH] , what is its reported Kd?
Result: 80
